test system: CAKI-1; assay: Cytotoxicity against human CAKI-1 cells assessed as growth inhibition after 72 hrs by SRB assay; type: functional; details: Homo sapiens, CAKI-1, 72 h; read-out: ED50 (the source's name)
Some molecules, each annotated with its measured EC50.
Kindly report the value followed by its unit.

# annotated cases, reported EC50 shown
| molecule | assayed_system | EC50 |
| --- | --- | --- |
| C[C@H]1O[C@H](O[C@H]2CC[C@]3(C=O)[C@H]4CC[C@]5(C)[C@@H](C6=CC(=O)OC6)CC[C@]5(O)[C@@H]4CC[C@]3(O)C2)[C@H](O)[C@H](O[C@@H]2O[C@H](CO)[C@@H](O)[C@H](O)[C@H]2O)[C@@H]1O [GLUCOSTROPHALLOSIDE] | CAKI-1 | 0.065 µg/mL |
| CO[C@H]1[C@@H](O[C@H]2CC[C@]3(C=O)[C@H]4CC[C@]5(C)[C@@H](C6=CC(=O)OC6)CC[C@]5(O)[C@@H]4CC[C@]3(O)C2)O[C@H](C)[C@@H](O)[C@H]1O (stereo in doubt; 23) [STROPHATHOJAVOSIDE] | CAKI-1 | 0.014 µg/mL |
| C[C@@H]1O[C@H](O[C@H]2CC[C@]3(CO)[C@H]4CC[C@]5(C)[C@@H](C6=CC(=O)OC6)CC[C@]5(O)[C@@H]4CC[C@]3(O)C2)[C@H](O)[C@H](O)[C@H]1O [CONVALLATOXOL] | CAKI-1 | 0.0061 µg/mL |

Lab note: next molecule to report on.
I'm curious: which EC50 was measured for C[C@@H]1O[C@H](O[C@H]2CC[C@@]3(C(=O)O)[C@H](CC[C@@H]4[C@@H]3CC[C@]3(C)[C@@H](C5=CC(=O)OC5)CC[C@]43O)C2)[C@H](O)[C@H](O)[C@H]1O [ANTIAROSIDE E] tested on CAKI-1?
0.13 µg/mL

----------
system: CAKI-1; experiment: Cytotoxicity against human CAKI-1 cells assessed as growth inhibition after 72 hrs by SRB assay; type: functional; conditions: Homo sapiens, CAKI-1, 72 h; read-out: ED50 (the source's name)
Kindly apply the following: Yes if EC50 is less than 0.1 µg/mL, No in every other case.

Answered examples (5):
| compound | group |
| --- | --- |
| C[C@@H]1O[C@H](O[C@H]2CC[C@@]3(C=O)[C@H](CC[C@@H]4[C@@H]3CC[C@]3(C)[C@@H](C5=CC(=O)OC5)CC[C@]43O)C2)[C@H](O)[C@H](O)[C@H]1O [MALAYOSIDE] | Yes |
| C[C@@H]1O[C@@H](O[C@@H]2CC[C@@]3(CO)[C@H](CC[C@@H]4[C@@H]3CC[C@]3(C)[C@@H](C5=CC(=O)OC5)CC[C@]43O)C2)[C@H](O)[C@H](O)[C@H]1O[C@@H]1O[C@H](CO)[C@@H](O)[C@H](O)[C@H]1O [ANTIAROSIDE D] | No |
| C[C@]12CC[C@H]3[C@@H](CC[C@]4(O)C[C@@H](O)CC[C@]34C=O)[C@@]1(O)CC[C@@H]2C1=CC(=O)OC1 | No |
| C[C@H]1O[C@@H](O[C@H]2CC[C@]3(C)[C@H]4CC[C@]5(C)[C@@H](C6=CC(=O)OC6)CC[C@]5(O)[C@@H]4CC[C@]3(O)C2)[C@H](O)[C@H](O)[C@H]1O [ANTIAROSIDE A] | Yes |
| C[C@@H]1O[C@H](O[C@H]2CC[C@@H]3[C@H]4CC[C@]5(C)[C@@H](C6=CC(=O)OC6)CC[C@]5(O)[C@@H]4CC[C@]3(O)C2)[C@H](O)[C@H](O)[C@H]1O [ANTIAROSIDE I] | No |

Kindly review the next compound as well.
Dear colleague, could you confirm whether EC50 of C[C@@H]1O[C@@H](O[C@H]2CC[C@]3(C=O)[C@H]4CC[C@]5(C)[C@@H](C6=CC(=O)OC6)CC[C@]5(O)[C@@H]4CC[C@]3(O)C2)[C@H](O)[C@H](O)[C@H]1O[C@@H]1O[C@H](CO)[C@@H](O)[C@H](O)[C@H]1O [CONVALLOSIDE] falls below 0.1 µg/mL? Thanks.
Yes

----------
Some compounds, each annotated with its measured EC50.
test system: MCF7; assay: Cytotoxicity against human MCF7 cells assessed as growth inhibition after 72 hrs by SRB assay; format: functional; details: Homo sapiens, MCF7, 72 h; read-out: ED50 (the source's name)
Give a bare numeral; the unit µg/mL is implied.

# annotated cases, reported EC50 shown
| compound | EC50, µg/mL |
| --- | --- |
| C[C@]12CC[C@H]3[C@@H](CC[C@]4(O)C[C@@H](O)CC[C@]34C=O)[C@@]1(O)CC[C@@H]2C1=CC(=O)OC1 | 0.38 |
| CC1(C)Oc2ccc3ccc(=O)oc3c2[C@@H](O[C@@H]2O[C@H](CO)[C@@H](O)[C@H](O)[C@H]2O)[C@@H]1O | 3.1 |

Lab note: next compound to report on.
Given the entry C[C@@H]1O[C@H](O[C@H]2CC[C@@H]3[C@H]4CC[C@]5(C)[C@@H](C6=CC(=O)OC6)CC[C@]5(O)[C@@H]4CC[C@]3(O)C2)[C@H](O)[C@H](O)[C@H]1O [ANTIAROSIDE I] , report its measured EC50.
1.3

----------
Some molecules, each annotated with its measured EC50.
system: MCF7; test: Cytotoxicity against human MCF7 cells assessed as growth inhibition after 72 hrs by SRB assay; format: functional; conditions: Homo sapiens, MCF7, 72 h; read-out: ED50 (the source's name)
Give a bare numeral; the unit µg/mL is implied.

| molecule | EC50 / µg/mL |
| --- | --- |
| C[C@]12CC[C@H]3[C@@H](CC[C@]4(O)C[C@@H](O)CC[C@]34CO)[C@@]1(O)CC[C@@H]2C1=CC(=O)OC1 [STROPHANTHIDOL] | 0.69 |

I'm curious: which EC50 was measured for C[C@@H]1O[C@@H](O[C@H]2CC[C@]3(C=O)[C@H]4CC[C@]5(C)[C@@H](C6=CC(=O)OC6)CC[C@]5(O)[C@@H]4CC[C@]3(O)C2)[C@H](O)[C@H](O)[C@H]1O [CONVALLATOXIN] tested on MCF7?
0.0065

I'm curious: which EC50 was measured for C[C@@H]1O[C@H](O[C@H]2CC[C@]3(C=O)[C@H]4C[C@@H](O)[C@]5(C)[C@@H](C6=CC(=O)OC6)CC[C@]5(O)[C@@H]4CC[C@]3(O)C2)[C@H](O)[C@H](O)[C@H]1O tested on MCF7?
0.018

I'm curious: which EC50 was measured for C[C@H]1O[C@H](O[C@H]2CC[C@]3(C=O)[C@H]4C[C@@H](O)[C@]5(C)[C@@H](C6=CC(=O)OC6)CC[C@]5(O)[C@@H]4CC[C@]3(O)C2)[C@H](O)[C@H](O)[C@H]1O tested on MCF7?
0.1

I'm curious: which EC50 was measured for C[C@@H]1O[C@@H](O[C@@H]2CC[C@@]3(CO)[C@H](CC[C@@H]4[C@@H]3CC[C@]3(C)[C@@H](C5=CC(=O)OC5)CC[C@]43O)C2)[C@H](O)[C@H](O)[C@H]1O[C@@H]1O[C@H](CO)[C@@H](O)[C@H](O)[C@H]1O [ANTIAROSIDE D] tested on MCF7?
1

I'm curious: which EC50 was measured for C[C@H]1O[C@@H](O[C@H]2CC[C@]3(C=O)[C@H]4CC[C@]5(C)[C@@H](C6=CC(=O)OC6)CC[C@]5(O)[C@@H]4CC[C@]3(O)C2)[C@H](O)[C@H](O)[C@H]1O[C@@H]1O[C@H](CO)[C@@H](O)[C@H](O)[C@H]1O tested on MCF7?
0.58

I'm curious: which EC50 was measured for C[C@@H]1O[C@H](O[C@H]2CC[C@@]3(C=O)[C@H](CC[C@@H]4[C@@H]3CC[C@]3(C)[C@@H](C5=CC(=O)OC5)CC[C@]43O)C2)[C@H](O)[C@H](O)[C@H]1O [MALAYOSIDE] tested on MCF7?
0.19

----------
system: CAKI-1; assay: Cytotoxicity against human CAKI-1 cells assessed as growth inhibition after 72 hrs by SRB assay; assay type: functional; conditions: Homo sapiens, CAKI-1, 72 h; read-out: ED50 (the source's name)
readout_type: EC50 (µg/mL)
Give a bare numeral; the unit µg/mL is implied.

# annotated cases, reported EC50 shown
| compound | unit_of_measure | EC50 |
| --- | --- | --- |
| C[C@]12[C@H](O)C[C@H]3[C@@H](CC[C@]4(O)CCCC[C@]34C=O)[C@@]1(O)CC[C@@H]2C1=CC(=O)OC1 [ANTIARIGENIN] | µg/mL | 1.3 |
| C[C@@H]1O[C@H](O[C@H]2CC[C@]3(C)[C@H]4CC[C@]5(C)[C@@H](C6=CC(=O)OC6)CC[C@]5(O)[C@@H]4CC[C@]3(O)C2)[C@H](O)[C@H](O)[C@H]1O [PERIPLORHAMNOSIDE] | µg/mL | 0.014 |

Lab note: next compound to report on.
I'm curious: which EC50 was measured for C[C@H]1O[C@H](O[C@H]2CC[C@]3(C=O)[C@H]4C[C@@H](O)[C@]5(C)[C@@H](C6=CC(=O)OC6)CC[C@]5(O)[C@@H]4CC[C@]3(O)C2)[C@H](O)[C@H](O)[C@@H]1O [ANTIALLOSIDE] tested on CAKI-1?
0.068
